The values you see were collected from ChEMBL document CHEMBL3885861.

Organism: Rattus norvegicus
Test: Open TG-GATES - Regimen: Single
Format: toxicity, organism-based, Sprague-Dawley
Parameters: regimen Single, gender Male, age 6 weeks
Settings: in vivo, po, 0 mg/kg, 3 h, tissue Kidney, route gavage, dose level Control
This listing pairs compounds with measured KIDNEY_L.

>  <compound>
CC(=N)S [THIOACETAMIDE]

>  <value.units>
g

>  <KIDNEY_L>
0.9

$$$$
>  <compound>
CCSCC[C@H](N)C(=O)O

>  <value.units>
g

>  <KIDNEY_L>
1

$$$$
>  <compound>
CCc1oc2ccccc2c1C(=O)c1cc(I)c(O)c(I)c1

>  <value.units>
g

>  <KIDNEY_L>
1

$$$$
>  <compound>
C#C[C@]1(O)CC[C@H]2[C@@H]3CCc4cc(O)ccc4[C@H]3CC[C@@]21C

>  <value.units>
g

>  <KIDNEY_L>
0.8

$$$$
>  <compound>
CN1C(=O)OC(C)(C)C1=O

>  <value.units>
g

>  <KIDNEY_L>
1

$$$$
>  <compound>
C[C@](N)(Cc1ccc(O)c(O)c1)C(=O)O

>  <value.units>
g

>  <KIDNEY_L>
0.8

$$$$
>  <compound>
CCN1CCCC1CNC(=O)c1cc(S(N)(=O)=O)ccc1OC (stereo not given) [SULPIRIDE]

>  <value.units>
g

>  <KIDNEY_L>
0.9

$$$$
>  <compound>
CC(C)(S)[C@@H](N)C(=O)O

>  <value.units>
g

>  <KIDNEY_L>
0.9

$$$$
>  <compound>
O=C(N[C@H](CO)[C@H](O)c1ccc([N+](=O)[O-])cc1)C(Cl)Cl

>  <value.units>
g

>  <KIDNEY_L>
0.9

$$$$
>  <compound>
CCC(C)(C)C(=O)O[C@H]1C[C@@H](C)C=C2C=C[C@H](C)[C@H](CC[C@@H]3C[C@@H](O)CC(=O)O3)[C@H]21

>  <value.units>
g

>  <KIDNEY_L>
0.9

$$$$
>  <compound>
Nc1nc(N)c2nc(-c3ccccc3)c(N)nc2n1

>  <value.units>
g

>  <KIDNEY_L>
1

$$$$
>  <compound>
CC(C)C(=O)Nc1ccc([N+](=O)[O-])c(C(F)(F)F)c1 [FLUTAMIDE]

>  <value.units>
g

>  <KIDNEY_L>
1

$$$$
>  <compound>
C[C@]12CCC(=O)C=C1CC[C@@H]1[C@@H]2CC[C@@]2(C)[C@H]1CC[C@]2(C)O

>  <value.units>
g

>  <KIDNEY_L>
0.9

$$$$
>  <compound>
CC(=O)Oc1cc(C(C)C)c(OCCN(C)C)cc1C

>  <value.units>
g

>  <KIDNEY_L>
0.9

$$$$
>  <compound>
Oc1ncnc2[nH]ncc12

>  <value.units>
g

>  <KIDNEY_L>
1

$$$$

* * *

Species: Rattus norvegicus
Test: Open TG-GATES - Regimen: Single
Format: toxicity, organism-based, Sprague-Dawley
Parameters: regimen Single, gender Male, age 6 weeks
Settings: in vivo, po, 0 mg/kg, 6 h, tissue Kidney, route gavage, dose level Control
This listing pairs molecules with measured KIDNEY_R.

>  <molecule>
Oc1ncnc2[nH]ncc12

>  <KIDNEY_R [g]>
0.9

$$$$
>  <molecule>
CCN1CCCC1CNC(=O)c1cc(S(N)(=O)=O)ccc1OC (stereo not given) [SULPIRIDE]

>  <KIDNEY_R [g]>
0.9

$$$$
>  <molecule>
C[C@](N)(Cc1ccc(O)c(O)c1)C(=O)O

>  <KIDNEY_R [g]>
0.8

$$$$
>  <molecule>
CCc1oc2ccccc2c1C(=O)c1cc(I)c(O)c(I)c1

>  <KIDNEY_R [g]>
1

$$$$
>  <molecule>
CN1C(=O)OC(C)(C)C1=O

>  <KIDNEY_R [g]>
0.9

$$$$
>  <molecule>
CC(=N)S [THIOACETAMIDE]

>  <KIDNEY_R [g]>
0.9

$$$$
>  <molecule>
O=C(N[C@H](CO)[C@H](O)c1ccc([N+](=O)[O-])cc1)C(Cl)Cl

>  <KIDNEY_R [g]>
0.9

$$$$
>  <molecule>
C[C@]12CCC(=O)C=C1CC[C@@H]1[C@@H]2CC[C@@]2(C)[C@H]1CC[C@]2(C)O

>  <KIDNEY_R [g]>
0.9

$$$$
>  <molecule>
C#C[C@]1(O)CC[C@H]2[C@@H]3CCc4cc(O)ccc4[C@H]3CC[C@@]21C

>  <KIDNEY_R [g]>
0.8

$$$$
>  <molecule>
CC(C)C(=O)Nc1ccc([N+](=O)[O-])c(C(F)(F)F)c1 [FLUTAMIDE]

>  <KIDNEY_R [g]>
0.9

$$$$
